- Tested on: MOLT-4 leukemia
- TEST_DETAILS: NCI tumour cell line growth inhibition, 48 h
REPORTED_PROPERTY: TGI

Example entries begin here.
1) Cc1nc2ccccc2c(=O)n1NC(=S)Nc1cccc(Cl)c1 ... > 100 µM
2) COc1cc2ccnc(-c3c4ccccc4c(N)c4c(OC)c(OC)ccc34)c2cc1OC ... 9.53 µM
3) C=CC(=O)N1CCC([C@@H]2CCNc3c(C(N)=O)c(-c4ccc(Oc5ccccc5)cc4)nn32)CC1 ... > 93.6 µM

Can you give me TGI for all of these, one by one?
1. O=C(CC(=O)Nc1ccccc1O)Nc1ccccc1O
2. COc1cc(S(=O)(=O)Nc2nc(-c3ccc(N)cc3)cs2)ccc1Cl

1: > 100 µM; 2: > 100 µM

---

- Test system: LOX IMVI melanoma
- TEST_DETAILS: NCI tumour cell line growth inhibition, 48 h; in the data active = GI50 below about 0.43 µM; inactive = the rest
Reply using exactly one outcome from true (active), false (inactive)

Record excerpt, results attached:
1) CCOC(=O)Cn1c(C)c(/C=N/NC(=O)c2cc3c(ccc4ccccc43)o2)c2ccccc21 ... false
2) COc1ccc(-c2cc(-c3cn[nH]c3-c3ccccn3)ccn2)cc1 ... false
3) O=C1c2ccccc2-c2n[nH]c3cccc1c23 ... false
4) Nc1ccn(C2CC(O)C(CO)O2)c(=O)n1 (stereo unspecified) ... false
5) Nc1ncnc2c(C3OC(CO)C(O)C3O)scc12 (stereo unspecified) ... true

What did this assay record as the result for Nc1ncnc2c(C3OC(CO)C(O)C3O)[nH]nc12 (stereo unspecified) ? true

What did this assay record as the result for `Cc1ccc2c(Nc3cccc(Cl)c3F)ncc(NC(=O)c3csc4c(N)ncnc34)c2c1` ? true

What did this assay record as the result for `Cc1cc2c3ccccc3ccc2[n+]2ccccc12` ? false

What did this assay record as the result for `C/C(=N\NC(=O)c1ccccc1O)c1cccc(/C(C)=N/NC(=O)c2ccccc2O)n1` ? false

What did this assay record as the result for `COc1cc(Cn2ccc3c2-c2oncc2CC3)cc(OC)c1` ? false

What did this assay record as the result for `CCC[CH2][Sn]([CH2]CCC)([O]C(=O)c1cc(OC)c(OC)cc1OC)[O]C(=O)c1cc(OC)c(OC)cc1OC` ? false

---

- System: OVCAR-4 ovarian
- TEST_DETAILS: NCI tumour cell line growth inhibition, 48 h
REPORTED_PROPERTY: TGI

1) CCOC(CI)O[C@@H]1C=C[C@H](OC(C)=O)C1 (stereo partly specified) ... > 100 µM
2) OCc1ccc2c(c1)CC1(C2)Cc2cc3c(cc2C1)CCC3 ... > 100 µM
3) Cc1ccc2c(Nc3cccc(Cl)c3F)ncc(NC(=O)c3csc4c(N)ncnc34)c2c1 ... > 100 µM
4) Cc1cc2c3ccccc3ccc2[n+]2ccccc12 ... 14.8 µM
5) CO[C@H]1C[C@@H]2CC[C@@H](C)[C@@](O)(O2)C(=O)C(=O)N2CCCC[C@H]2C(=O)O[C@H]([C@H](C)C[C@@H]2CC[C@@H](OP(C)(C)=O)[C@H](OC)C2)CC(=O)[C@H](C)/C=C(\C)[C@@H](O)[C@@H](OC)C(=O)[C@H](C)C[C@H](C)/C=C/C=C/C=C/1C ... 21.3 µM
6) ICCC(c1ccccc1)(c1ccccc1)c1ccccc1 ... 30.8 µM

Can you give me TGI for all of these, one by one?
1. N#CCN1CCOCCOCCN(CC#N)CCOCCOCC1
2. O=C1CSC(c2ccc(Cl)cc2)N1c1ccc(-c2ccc(-n3c(-c4ccccc4)nc4ccccc4c3=O)cc2)cc1 (stereo unspecified)
3. N#Cc1c(C#N)c(-c2ccco2)n(-c2ccccc2)c1N
4. CC(=O)Nc1ccccc1-c1cnc2ccccc2n1

["> 100 µM", "56.8 µM", "> 100 µM", "> 100 µM"]

Can you give me TGI for all of these, one by one?
1. NC(=O)Nc1cc(O)ccc1N=Nc1ccc(S(=O)(=O)Nc2ccccn2)cc1
2. NC(CSc1nc2ccccn2c1[N+](=O)[O-])C(=O)O (stereo unspecified)
3. CO/N=C(/COc1c(-c2ccccc2)oc2ccccc2c1=O)c1ccc(OC)cc1
4. Cn1c(=O)c2c(nc(N)n2C2OC(CO)C(O)C2O)n(C)c1=O (stereo unspecified)
5. COc1cccc(-n2ncc3c(N/N=C/c4ccc(S(C)(=O)=O)cc4)ncnc32)c1

1. > 100 µM
2. > 100 µM
3. > 100 µM
4. > 100 µM
5. > 25 µM

Can you give me TGI for all of these, one by one?
1. Nc1ccc(Nc2c3ccccc3nc3ccccc23)cc1
2. NCCCCN(CCCN)Cc1ccccc1
3. C/C1=C\C/C=C(\C)[C@H]2CC(CC/C(C)=C/CC1)[C@@](C)(CO)O2
4. Cc1ccc(S(=O)(=O)SCc2ccccc2CSS(=O)(=O)c2ccc(C)cc2)cc1
5. Cc1ccc(NC(=O)CC/C(CC(=O)c2ccc(F)cc2)=N\NC(=O)C(=O)NN)cc1C
6. Nc1nc(Cl)cc(NCC2(CO)CCC(O)C2)n1 (stereo unspecified)

> 10 µM
> 100 µM
> 100 µM
33.9 µM
> 100 µM
> 100 µM
